Assay: Circular dichroism, percent α-helicity in solution
Type: physicochemical
Conditions: CD, 5 mM sodium phosphate buffer pH 7.0
Description: CD was measured on a JASCO J-810 spectropolarimeter, and spectra were either recorded with a quartz cuvette (Helmer) with a pathlength of 0.01 cm or 0.1 cm in 5 mM sodium phosphate buffer (pH 7.0). FUV CD spectra were recorded from 260 nm to 200 nm at a peptide concentration of either 2 mg/ml or 0.5 mg/ml, respectively. […] CD spectra were recorded at a data pitch of 0.2 nm at 50 nm min^−1, a response time of 2 s, and a bandwidth of 2 nM. […]
Non-standard residues stand in square brackets, D forms with d. Residues, ends and D or L forms follow the SMILES beside them. Aib = CC(C)(N)C(=O)O
Below, each of the compounds is paired with its reported Helicity (%) value.

Worked cases, Helicity (%) given:
>>> reported_value("CC(=O)N[C@@H](CCCCN)C(=O)N[C@@H](CCCCN)C(=O)N[C@@H](CCCNC(=N)N)C(=O)N[C@@H](Cc1ccc(O)cc1)C(=O)N[C@@H](CO)C(=O)N[C@@H](CCCNC(=N)N)C(=O)NC(C)(C)C(=O)N[C@@H](C)C(=O)N[C@@H](CC(C)C)C(=O)N[C@@H](CC(C)C)C(=O)NC(C)(C)C(=O)N[C@@H](Cc1ccccc1)C(N)=O [TIP-01^F8A, KKRYSRXALLXF] (Ac-KKRYSR[Aib]ALL[Aib]F-NH2)")
"10%"
>>> reported_value("CC[C@H](NC(=O)[C@]1(C)CCCC=CCCC[C@](C)(NC(=O)[C@H](CCCNC(=N)N)NC(=O)[C@H](CO)NC(=O)[C@H](Cc2ccc(O)cc2)NC(=O)[C@H](CCCNC(=N)N)NC(=O)[C@H](CCCCN)NC(=O)[C@H](CCCCN)NC(C)=O)C(=O)N[C@@H](Cc2ccccc2)C(=O)N[C@@H](CC(C)C)C(=O)N[C@@H](CC(C)C)C(=O)N1)C(N)=O (relative stereo) [sTIP-01^F12&, KKRYSR*FLL*&]")
"44%"
>>> reported_value("CC(=O)N[C@@H](CCCCN)C(=O)N[C@@H](CCCCN)C(=O)N[C@@H](CCCNC(=N)N)C(=O)N[C@@H](Cc1ccc(O)cc1)C(=O)N[C@@H](CO)C(=O)N[C@@H](CCCNC(=N)N)C(=O)N[C@@H](CCC(=O)O)C(=O)NC(C)(C)C(=O)N[C@@H](CC(C)C)C(=O)N[C@@H](CC(C)C)C(=O)NCC(=O)NC(C)(C)C(N)=O [TIP-02, KKRYSREXLLGX]")
"0/ %"

Field: next compound
Can you share its Helicity (%)? I mean this compound: CC(=O)N[C@@H](CCCCN)C(=O)N[C@@H](CCCCN)C(=O)N[C@@H](CCCNC(=N)N)C(=O)N[C@@H](Cc1ccc(O)cc1)C(=O)N[C@@H](CO)C(=O)N[C@@H](CCCNC(=N)N)C(=O)N[C@@]1(C)CCCC=CCCC[C@@](C)(C(=O)N[C@@H](CC(C)C)C(N)=O)NC(=O)[C@H](CC(C)C)NC(=O)[C@H](CC(C)C)NC(=O)[C@H](CCC(N)=O)NC1=O (relative stereo) [sTIP-04, KKRYSR*QLL*L] 63%

---

Experiment: circular dichroism
Details: 5 mM sodium phosphate; pH 7.0; ns °C; 0.5 or 2 mg/mL
Positions of bridges follow the written chain, without caps; N, C: chain ends. Non-standard residues stand in square brackets, D forms with d. Residues, ends and D or L forms follow the SMILES beside them. S5 = C=CCCC[C@](C)(N)C(=O)O; Aib = CC(C)(N)C(=O)O
Readings of helicity for the listed molecules
Field: numeric (%). Do not append units.

Some molecules with recorded helicity:
>>> reported_value("CC(=O)N[C@@H](CCCCN)C(=O)N[C@@H](CCCCN)C(=O)N[C@@H](CCCNC(=N)N)C(=O)N[C@@H](Cc1ccc(O)cc1)C(=O)N[C@@H](CO)C(=O)N[C@@H](CCCNC(=N)N)C(=O)NC(C)(C)C(=O)N[C@@H](Cc1ccccc1)C(=O)N[C@@H](CC(C)C)C(=O)N[C@@H](CC(C)C)C(=O)NC(C)(C)C(N)=O (Ac-KKRYSR[Aib]FLL[Aib]-NH2)")
7
>>> reported_value("CC(=O)N[C@@H](CCCCN)C(=O)N[C@@H](CCCCN)C(=O)N[C@@H](CCCNC(=N)N)C(=O)N[C@@H](Cc1ccc(O)cc1)C(=O)N[C@@H](CO)C(=O)N[C@@H](CCCNC(=N)N)C(=O)NC(C)(C)C(=O)N[C@@H](CCC(N)=O)C(=O)N[C@@H](CC(C)C)C(=O)N[C@@H](CC(C)C)C(=O)NC(C)(C)C(=O)N[C@@H](CC(C)C)C(N)=O [TIP-04, KKRYSRXQLLXL]")
4
>>> reported_value("CC(=O)N[C@@H](CCCCN)C(=O)N[C@@H](CCCCN)C(=O)N[C@@H](CCCNC(=N)N)C(=O)N[C@@H](Cc1ccc(O)cc1)C(=O)N[C@@H](CO)C(=O)N[C@@H](CCCNC(=N)N)C(=O)N[C@@H](CCC(=O)O)C(=O)N[C@@]1(C)CCCC=CCCC[C@@](C)(C(N)=O)NC(=O)CNC(=O)[C@H](CC(C)C)NC(=O)[C@H](CC(C)C)NC1=O [sTIP-02, KKRYSRE*LLG*]")
18

Continue with the next molecule.
For the molecule shown here, CC(=O)N[C@@H](CCCCN)C(=O)N[C@@H](CCCCN)C(=O)N[C@@H](CCCNC(=N)N)C(=O)N[C@@H](Cc1ccc(O)cc1)C(=O)N[C@@H](CO)C(=O)N[C@@H](CCCNC(=N)N)C(=O)N[C@@]1(C)CCCC=CCCC[C@@](C)(C(N)=O)NC(=O)[C@H](CC(C)C)NC(=O)[C@H](CC(C)C)NC(=O)[C@H](Cc2ccccc2)NC1=O (Ac-KKRYSR[S5]FLL[S5]-NH2; staple 7-11) , give the reported helicity. 72
